- System: MEK4
- Construct: gene MAP2K4
- condition: concentration: 1 μM, replicates: in singlicate; n = 1;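 also: KINOMEscan kinase panel screen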

{"compound": "Fc1cccc(CSc2nnc(-c3ccc4c(c3)CCO4)o2)c1", "unitOfMeasure": "%", "%Inh": 5}
{"compound": "COc1cc2nccc(Nc3ccc(OCc4ccc(NC(C)=O)cc4)cc3)c2cc1OC.Cl", "unitOfMeasure": "%", "%Inh": 2}
{"compound": "COC(=O)c1c(-c2ccccc2)c2cc(C)ccc2c(=O)n1Cc1ccccc1", "unitOfMeasure": "%", "%Inh": 0}
{"compound": "Nc1ncnc2c1ncn2-c1ccc(Cl)cc1", "unitOfMeasure": "%", "%Inh": 12}
{"compound": "COc1cc(OC)cc(-c2cc3cnc(N)nc3nc2NC(=O)NC(C)(C)C)c1", "unitOfMeasure": "%", "%Inh": 0}
{"compound": "O=C(Nc1n[nH]c2cc(-c3ccccc3F)ccc12)C1CC1", "unitOfMeasure": "%", "%Inh": 0}
{"compound": "COc1cc(Nc2nccc(N3CCC(NC(=O)C(C)c4ccc(Cl)cc4)C3)n2)cc(OC)c1OC (centres unmarked)", "unitOfMeasure": "%", "%Inh": 5}
{"compound": "CCc1nc(-c2cccc(C)c2)c(-c2ccncc2)s1", "unitOfMeasure": "%", "%Inh": 0}
{"compound": "COc1cc2ncn(-c3cc(OCc4ccncc4Br)c(C(N)=O)s3)c2cc1OC", "unitOfMeasure": "%", "%Inh": 16}
{"compound": "COc1cc(Nc2nccc(N3CCC(NC(=O)C4COc5ccccc5O4)C3)n2)cc(OC)c1OC (centres unmarked)", "unitOfMeasure": "%", "%Inh": 0}
{"compound": "CCC(=O)c1c(-c2ccccc2)c2cc(Cl)ccc2c(=O)n1Cc1cc(S(C)(=O)=O)n(CC(N)=O)n1", "unitOfMeasure": "%", "%Inh": 0}

* * *

- Tested on: CAMK1G
- condition: concentration: 1 μM, replicates: in singlicate; n = 1
parameterMeasured: %Inh (%)

{"compound": "Cc1cccc(-c2cc(-c3c[nH]nc3-c3ccccn3)ccn2)c1", "assaySystem": "CAMK1G", "assayResult": 0}
{"compound": "Cc1c(Cn2c(C)nn3c(=O)cc(N4CCO[C@H](C)C4)nc23)cccc1C(F)(F)F", "assaySystem": "CAMK1G", "assayResult": 0}
{"compound": "Cl.NS(=O)(=O)c1cccc(Nc2cc(-c3ccc(F)cc3)n[nH]2)c1", "assaySystem": "CAMK1G", "assayResult": 0}
{"compound": "COc1ccc(-c2coc3ccc(-c4nnc(SCc5cccc(C#N)c5)o4)cc23)cc1", "assaySystem": "CAMK1G", "assayResult": 8}
{"compound": "COc1cccc(C2=C(Nc3cccc(C(=O)O)c3)C(=O)NC2=O)c1", "assaySystem": "CAMK1G", "assayResult": 33}
{"compound": "CCCC(=O)Nc1n[nH]c2ncc(-c3cccc4ccccc34)cc12", "assaySystem": "CAMK1G", "assayResult": 11}
{"compound": "Fc1cccc(CSc2nnc(-c3ccc4c(c3)CCO4)o2)c1", "assaySystem": "CAMK1G", "assayResult": 2}
{"compound": "Nc1n[nH]c2ncc(-c3ccccc3)cc12", "assaySystem": "CAMK1G", "assayResult": 17}
{"compound": "Cn1c(=O)c(F)c(Nc2ccc(I)cc2F)c2c(=O)n(OC[C@H](O)CO)cnc21", "assaySystem": "CAMK1G", "assayResult": 0}
{"compound": "COc1cc2ncn(-c3cc(OCCCc4ccccc4)c(C(N)=O)s3)c2cc1OC", "assaySystem": "CAMK1G", "assayResult": 24}
{"compound": "COc1cccc(C2=C(N(C)c3ccccc3)C(=O)NC2=O)c1", "assaySystem": "CAMK1G", "assayResult": 0}
{"compound": "COc1ccc(-n2cnc3c(N)ncnc32)cc1", "assaySystem": "CAMK1G", "assayResult": 0}
{"compound": "COc1ccc(Nc2nccc(N3CCC(NS(=O)(=O)c4ccc(NC(C)=O)cc4)C3)n2)cc1 (stereo not drawn)", "assaySystem": "CAMK1G", "assayResult": 0}
{"compound": "COc1ccc(-c2cc3c(C)nc(N)nc3n([C@H]3CC[C@H](O)CC3)c2=O)cn1", "assaySystem": "CAMK1G", "assayResult": 0}
{"compound": "Cc1nnc(-c2ccc(C)c(-c3ccc(C(=O)O)cc3)c2)o1", "assaySystem": "CAMK1G", "assayResult": 0}
{"compound": "FC(F)(F)c1ccc(-c2ncn(CCCN3CCOCC3)c2-c2ccncc2)cc1", "assaySystem": "CAMK1G", "assayResult": 3}
{"compound": "COC(=O)c1c(-c2ccccc2)c2cc(Br)ccc2c(=O)n1Cc1ccc(NC(=O)CCC(=O)O)cc1", "assaySystem": "CAMK1G", "assayResult": 9}
{"compound": "Cc1nnc(-c2ccc3ncn(-c4ccc(S(C)=O)cc4)c3c2)o1 (stereo not drawn)", "assaySystem": "CAMK1G", "assayResult": 2}
{"compound": "CCC(=O)c1c(-c2ccccc2)c2cc(Cl)ccc2c(=O)n1Cc1cc(S(C)(=O)=O)n(CCC(C)(C)O)n1", "assaySystem": "CAMK1G", "assayResult": 33}
{"compound": "CCC(=O)c1c(-c2ccccc2)c2cc(Cl)ccc2c(=O)n1Cc1cc(C(=O)NC2CC2)n(C)n1", "assaySystem": "CAMK1G", "assayResult": 0}
{"compound": "CCC(=O)c1c(-c2ccccc2)c2cc(Cl)ccc2c(=O)n1Cc1cc(S(C)(=O)=O)n(CC(F)F)n1", "assaySystem": "CAMK1G", "assayResult": 1}
{"compound": "C[C@@H]1CC[C@H](C(=O)NC2CCCCC2)CN1c1cc(-c2ccc3c(N)n[nH]c3c2)nc(N)n1", "assaySystem": "CAMK1G", "assayResult": 22}
{"compound": "Nc1nc(N)c2nc(-c3ccccc3)[nH]c2n1", "assaySystem": "CAMK1G", "assayResult": 0}
{"compound": "Nc1nccc2scc(-c3ccc4c(c3)CCN4C(=O)Cc3ccccc3)c12", "assaySystem": "CAMK1G", "assayResult": 0}

* * *

- Test system: CASK
- condition: concentration: 1 μM, replicates: in singlicate; n = 1
Please use Condition met for %Inh under 10% and Condition not met for everything else, ties included.

{"compound": "Cc1cccc(-c2cc(-c3c[nH]nc3-c3ccccn3)ccn2)c1", "assaySystem": "CASK", "className": "Condition not met"}
{"compound": "Fc1cccc(CSc2nnc(-c3ccc4c(c3)CCO4)o2)c1", "assaySystem": "CASK", "className": "Condition met"}
{"compound": "COc1ccc(-n2cnc3c(N)ncnc32)cc1", "assaySystem": "CASK", "className": "Condition met"}
{"compound": "Cc1nnc(-c2ccc(C)c(-c3ccc(C(=O)O)cc3)c2)o1", "assaySystem": "CASK", "className": "Condition met"}
{"compound": "Cc1c(Cn2c(C)nn3c(=O)cc(N4CCO[C@H](C)C4)nc23)cccc1C(F)(F)F", "assaySystem": "CASK", "className": "Condition not met"}
{"compound": "COc1cc2ncn(-c3cc(OCCCc4ccccc4)c(C(N)=O)s3)c2cc1OC", "assaySystem": "CASK", "className": "Condition not met"}
{"compound": "COc1cccc(C2=C(N(C)c3ccccc3)C(=O)NC2=O)c1", "assaySystem": "CASK", "className": "Condition not met"}
{"compound": "COc1cc(Nc2nccc(N3CCC(NC(=O)C4COc5ccccc5O4)C3)n2)cc(OC)c1OC (stereo not drawn)", "assaySystem": "CASK", "className": "Condition met"}
{"compound": "COc1cc(OC)cc(-c2cc3cnc(N)nc3nc2NC(=O)NC(C)(C)C)c1", "assaySystem": "CASK", "className": "Condition met"}

* * *

- System: HCK
- condition: concentration: 1 μM, replicates: in singlicate; n = 1
Please use TRUE for %Inh under 7% and FALSE for everything else, ties included.

{"compound": "CCn1c(-c2nonc2N)nc2ccccc21", "className": "TRUE"}
{"compound": "COc1cc2ncn(-c3cc(OCc4ccc(S(C)(=O)=O)cc4)c(C(N)=O)s3)c2cc1OC", "className": "TRUE"}
{"compound": "COc1cc2ncn(-c3cc(OCc4ccncc4)c(C(N)=O)s3)c2cc1OC", "className": "TRUE"}
{"compound": "COc1cc(Nc2ccnc3ccc(C(F)(F)F)cc23)cc(OC)c1OC", "className": "FALSE"}
{"compound": "COc1cccc(-n2cnc3c(N)ncnc32)c1", "className": "FALSE"}
{"compound": "COc1cccc(C2=C(N(C)c3ccccc3)C(=O)NC2=O)c1", "className": "TRUE"}
{"compound": "OCCCNc1nccc(-c2c(-c3cccc(C(F)(F)F)c3)nn3cc(C(F)(F)F)ccc23)n1", "className": "TRUE"}
{"compound": "CCC(=O)c1c(-c2ccccc2)c2cc(Cl)ccc2c(=O)n1Cc1ccc(C(=O)O)cc1", "className": "TRUE"}
{"compound": "CCS(=O)c1ccc(-c2coc3ccc(-c4nnc(C)o4)cc23)cc1 (stereo not shown)", "className": "FALSE"}
